- Test system: MDA-MB-231
- Procedure Summary: Growth inhibition of human MDA-MB-231 cells assessed as reduction in cell viability at 100 ug/ml by SRB colorimetric assay relative to control
- Format: functional
- Particulars: read-out: GI
// inhibition of growth at 100 µg/mL lookup, one value per entry
State the answer as a number, implicitly in %.

Molecule: COc1cc(C2NC(N)=Nc3nc4ccccc4n32)cc(OC)c1OC (centres undefined)
Subject Of Test: MDA-MB-231
Value Units: %
inhibition of growth at 100 µg/mL: 79.4

Task: Return inhibition of growth at 100 µg/mL measured with MDA-MB-231 given this molecule: COc1cccc2c1C(=O)c1c(O)c3c(c(O)c1C2=O)C[C@@](O)(C(=O)CO)C[C@@H]3O[C@H]1C[C@H](N)[C@H](O)[C@H](C)O1
Output: 78.2

Task: Can you handle NC1=Nc2nc3ccccc3n2C(c2ccc([N+](=O)[O-])cc2)N1 (centres undefined) next?
Output: 74.6

Task: What would you report for NC1=Nc2nc3ccccc3n2C(c2cccc(Cl)c2Cl)N1 (centres undefined) ?
Output: 75.1
